Data provenance is patent US7994172B2.

System under test: human p70S6 kinase (p70S6K, kinase domain residues 1-421, T412E mutation) (Homo sapiens, UniProt P23443, T412E)
Construct: human p70S6 kinase domainresidues 1-421, containing a T412E mutation
Sequence (P23443 1-421 T412E): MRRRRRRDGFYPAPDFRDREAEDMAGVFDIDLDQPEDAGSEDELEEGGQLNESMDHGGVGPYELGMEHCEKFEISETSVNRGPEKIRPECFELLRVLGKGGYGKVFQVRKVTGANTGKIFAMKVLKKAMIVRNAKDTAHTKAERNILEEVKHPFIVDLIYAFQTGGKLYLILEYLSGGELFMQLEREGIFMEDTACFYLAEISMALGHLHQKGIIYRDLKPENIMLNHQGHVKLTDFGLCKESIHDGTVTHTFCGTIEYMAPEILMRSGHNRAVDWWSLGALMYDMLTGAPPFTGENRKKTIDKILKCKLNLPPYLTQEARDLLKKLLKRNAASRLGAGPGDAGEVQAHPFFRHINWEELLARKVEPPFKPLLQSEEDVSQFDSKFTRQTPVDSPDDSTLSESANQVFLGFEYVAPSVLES
Run description: p70S6 kinase assay, Luciferase-Coupled Chemiluminescent Kinase assay (LCCA)
Study conditions: 5 μM ATP, 12 nM p70S6K; read-out: p70S6K inhibition IC50
Quantity name: IC50

Check out these entries, answers already filled in.
Compound	Quantity name	Endpoint value
O=C1CN(c2ncnc3[nH]nc(Br)c23)CCN1Cc1ccc(Cl)cc1	IC50	< 50 nM
Fc1cc(CN2CCN(c3ncnc4[nH]nc(Br)c34)CC2)ccc1Cl	IC50	< 50 nM
CN(C)CCOC(c1ccc(F)cc1)C1CCN(c2ncnc3[nH]nc(Br)c23)CC1 (stereo not drawn)	IC50	< 50 nM
O=[N+]([O-])c1cc(CN2CCN(c3ncnc4[nH]nc(Br)c34)CC2)ccc1Oc1ccc(Cl)cc1	IC50	> 2000 nM
OCC1CN(c2ncnc3[nH]nc(Br)c23)CCN1Cc1ccc(Cl)cc1 (stereo not drawn)	IC50	< 50 nM

# evaluate next
Query: Can you share its IC50? I mean this compound: CN(C)CCCC(c1ccc(Cl)cc1)C1CCN(c2ncnc3[nH]nc(Br)c23)CC1 (stereo not drawn)
Result: < 50 nM
